B1: scFv; the commonest letter at each place (parent)
chain 1: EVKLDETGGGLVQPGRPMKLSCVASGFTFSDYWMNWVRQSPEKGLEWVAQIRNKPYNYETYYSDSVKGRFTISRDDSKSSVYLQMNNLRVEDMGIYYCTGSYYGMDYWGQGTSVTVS
chain 2: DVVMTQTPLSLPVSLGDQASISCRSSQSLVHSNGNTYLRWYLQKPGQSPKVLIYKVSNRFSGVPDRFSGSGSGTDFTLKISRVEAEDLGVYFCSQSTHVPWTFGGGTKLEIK

# Variants of: B1
# method.description: yeast surface expression (ratio to wild type); higher = more expressed
# experimental.parameters: format: scFv 4-4-20, heavy + light
// label = 1.0 if yeast surface expression is not less than 0.8, otherwise 0.0

Check out these entries, answers already filled in.
chain 1 T28A F29V: 1.0
chain 1 Y32V W33N: 1.0

Shift focus to the following entry.
Can chain 1 D31A W36M be said to have yeast surface expression at or above 0.8?
0.0

Where these numbers come from: the FLAb antibody collection (doi:10.7554/elife.23156)
